This listing pairs compounds with measured IC50.
test system: HCV (J399E) inserted with enhanced green fluorescent protein (EGFP); experiment: microbe, parasite or virus in culture; format: cell-based, Hepatitis C Virus; details: HCV (J399E)-EGFP infected Huh7.5.1 cells, MOI=0.1, 72 h incubation; read-out: IC50 (concentration at which 50% of the replication of HCV was inhibited)
MEASURED_ENDPOINT: IC50 (µM)

| LINE_NOTATION | TARGET_ENTITY | UNIT_TEXT | MEASUREMENT |
| --- | --- | --- | --- |
| CC(C)Cc1sc(-c2nccs2)nc1C(=O)Nc1ccccc1 | HCV (J399E) inserted with enhanced green fluorescent protein (EGFP) | µM | 19.1 |
| CCC(=O)c1nc(-c2nccs2)sc1CC(C)C | HCV (J399E) inserted with enhanced green fluorescent protein (EGFP) | µM | 8.9 |
| O=C(O)c1nc(-c2nccs2)sc1Cc1ccccc1 | HCV (J399E) inserted with enhanced green fluorescent protein (EGFP) | µM | 25.7 |
| CCOC(=O)/C=C/c1nc(-c2nccs2)sc1CC(C)C | HCV (J399E) inserted with enhanced green fluorescent protein (EGFP) | µM | 9.8 |
| CNC(=O)c1nc(-c2nccs2)sc1CC(C)C | HCV (J399E) inserted with enhanced green fluorescent protein (EGFP) | µM | 13.6 |
| CC(C)Cc1sc(-c2nccs2)nc1C(N)=O | HCV (J399E) inserted with enhanced green fluorescent protein (EGFP) | µM | 4.9 |
| CCOC(=O)CCc1nc(-c2nccs2)sc1CC(C)C | HCV (J399E) inserted with enhanced green fluorescent protein (EGFP) | µM | 36.6 |
